Known log10 Ki of a selection of molecules
Target: Protease (Human immunodeficiency virus 1, UniProt Q9YQ12)
Sequence (Q9YQ12 whole entry): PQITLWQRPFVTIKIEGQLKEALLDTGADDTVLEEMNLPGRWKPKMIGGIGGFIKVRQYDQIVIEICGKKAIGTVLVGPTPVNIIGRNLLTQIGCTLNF
Base-10 log of Ki, unit nM.

For orientation, consider the following solved cases.
COc1ccc(S(=O)(=O)N(CC(C)C)C[C@@H](O)[C@H](Cc2cccc(-c3cc(OC)cc(OC)c3)c2)NC(=O)O[C@H]2CCOC2)cc1 ... -0.24
COc1ccc(S(=O)(=O)N(CC(C)C)C[C@@H](O)[C@H](Cc2cccc(-c3ccccc3OC)c2)NC(=O)O[C@H]2CO[C@H]3OCC[C@H]32)cc1 ... -1.92
COc1ccc(S(=O)(=O)N(CC(C)C)C[C@@H](O)[C@H](Cc2cccc(-c3cc(OC)cc(OC)c3)c2)NC(=O)O[C@H]2CO[C@H]3OCC[C@H]32)cc1 ... -1.85
COc1ccc(S(=O)(=O)N(CC(C)C)C[C@@H](O)[C@H](Cc2cccc(-c3cc(C)cc(C)c3)c2)NC(=O)OC(C)(C)C)cc1 ... 1.69
COc1ccc(S(=O)(=O)N(CC(C)C)C[C@@H](O)[C@H](Cc2cccc(-c3cc(OC)cc(OC)c3)c2)NC(=O)OC(C)(C)C)cc1 ... -0.09

Now, please, on to the next molecule.
Prompt line: Could you share which log10 Ki value was measured for COc1ccc(S(=O)(=O)N(CC(C)C)C[C@@H](O)[C@H](Cc2cccc(-c3ccc4c(c3)OCO4)c2)NC(=O)OC(C)(C)C)cc1 ?
Response line: 1.26
